tested on: HUVEC/MSC spheroids viability; assay: Human HUVEC/MSC cell line growth inhibition [KRAS2]; conditions: second compound 0.0316 µM; first compound 10 µM; active = viability on the fitted dose curve at most 10% of control; inactive = the rest;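 also: percent of DMSO vehicle control luminescence so 100% = untreated viability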
The categories you may choose from are YES for active, NO for inactive

Compound	Target Of Assay	Discrete Label
COC(=O)c1ccc2c(C(=Nc3ccc(N(C)C(=O)CN4CCN(C)CC4)cc3)c3ccccc3)c(O)[nH]c2c1 + CNCc1ccccc1-c1csc(C(C)Nc2nc(C)nc3cc(OC)c(OC)cc23)c1	HUVEC/MSC spheroids viability	YES
O=C(c1cc(Cc2n[nH]c(=O)c3ccccc23)ccc1F)N1CCN(C(=O)C2CC2)CC1 + COc1cc2nc(C)nc(NC(C)c3cc(N)cc(C(F)(F)F)c3)c2cc1OC1CCOC1	HUVEC/MSC spheroids viability	NO
O=C(c1cc(Cc2n[nH]c(=O)c3ccccc23)ccc1F)N1CCN(C(=O)C2CC2)CC1 + CC1OCC2(CCN(c3cnc(Sc4ccnc(N)c4Cl)c(N)n3)CC2)C1N	HUVEC/MSC spheroids viability	NO
Cn1nccc1Nc1nccc(-c2cc3c(s2)C(C)(C)N(CCN2CCOCC2)C3=O)n1 + CNCc1ccccc1-c1csc(C(C)Nc2nc(C)nc3cc(OC)c(OC)cc23)c1	HUVEC/MSC spheroids viability	YES

Switching to the query record.
[in] Assay result, entry CC(C)NCC(C(=O)N1CCN(c2ncnc3c2C(C)CC3O)CC1)c1ccc(Cl)cc1 (stereo not given) + C=CC(=O)N1CCN(c2nc(=O)n(-c3c(C)ccnc3C(C)C)c3nc(-c4c(O)cccc4F)c(F)cc23)C(C)C1 — outcome?
[out] NO

###

Kindly state viability, T/C for each of the entries shown.
tested on: HUVEC/MSC spheroids viability; experiment: Human HUVEC/MSC cell line growth inhibition [KRAS2]; conditions: second compound 3.16 µM; first compound 0.1 µM; active compounds read low;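 also: percent of DMSO vehicle control luminescence so 100% = untreated viability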

Compound	Target Of Assay	Attribute Measured	Measured Value
CC1OCC2(CCN(c3cnc(Sc4ccnc(N)c4Cl)c(N)n3)CC2)C1N (configuration not stated) + CNCc1ccccc1-c1csc(C(C)Nc2nc(C)nc3cc(OC)c(OC)cc23)c1	HUVEC/MSC spheroids viability	viability, T/C	98.7%

For each of the items listed, what is its viability, T/C?
1. CC1(C)CCC(CN2CCN(c3ccc(C(=O)NS(=O)(=O)c4ccc(NCC5CCOCC5)c([N+](=O)[O-])c4)c(Oc4cnc5[nH]ccc5c4)c3)CC2)=C(c2ccc(Cl)cc2)C1 + CNCc1ccccc1-c1csc(C(C)Nc2nc(C)nc3cc(OC)c(OC)cc23)c1
2. Cn1nccc1Nc1nccc(-c2cc3c(s2)C(C)(C)N(CCN2CCOCC2)C3=O)n1 + COc1cc2nc(C)nc(NC(C)c3cc(N)cc(C(F)(F)F)c3)c2cc1OC1CCOC1

[out]
1. 99.6%
2. 111%

For each of the items listed, what is its viability, T/C?
1. COc1cc(Nc2ncc3c(n2)-c2ccc(Cl)cc2C(c2c(F)cccc2OC)=NC3)ccc1C(=O)O + C=CC(=O)N1CCN(c2nc(=O)n(-c3c(C)ccnc3C(C)C)c3nc(-c4c(O)cccc4F)c(F)cc23)C(C)C1
2. COC(=O)c1ccc2c(C(=Nc3ccc(N(C)C(=O)CN4CCN(C)CC4)cc3)c3ccccc3)c(O)[nH]c2c1 + CNCc1ccccc1-c1csc(C(C)Nc2nc(C)nc3cc(OC)c(OC)cc23)c1
3. CC(C)n1nc(-c2ccc3oc(N)nc3c2)c2c(N)ncnc21 + CC1OCC2(CCN(c3cnc(Sc4ccnc(N)c4Cl)c(N)n3)CC2)C1N
4. COC(=O)c1ccc2c(C(=Nc3ccc(N(C)C(=O)CN4CCN(C)CC4)cc3)c3ccccc3)c(O)[nH]c2c1 + CC1OCC2(CCN(c3cnc(Sc4ccnc(N)c4Cl)c(N)n3)CC2)C1N

[out]
123%
95.8%
23.1%
73.3%
